Kd values for the binders below.
Target: T1, GFP-9S library array, motif 4 ND N98C;D124Y (synthetic construct, N98C;D124Y)
T1 chain: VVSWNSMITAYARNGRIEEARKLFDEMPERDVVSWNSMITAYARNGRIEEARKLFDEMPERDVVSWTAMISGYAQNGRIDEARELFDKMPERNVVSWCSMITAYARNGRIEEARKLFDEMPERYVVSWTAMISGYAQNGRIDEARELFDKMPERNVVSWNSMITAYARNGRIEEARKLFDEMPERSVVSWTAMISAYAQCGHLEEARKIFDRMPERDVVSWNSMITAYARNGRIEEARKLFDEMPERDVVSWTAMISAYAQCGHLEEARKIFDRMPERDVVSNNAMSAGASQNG
Assay: high-throughput RNA pulldown from lysate on Ni-NTA beads; HRP: 50 mM Tris pH 8, 150 mM NaCl, 1 mM beta-mercaptoethanol, 50 ug/ml BSA, 3 ug/ml yeast RNA, 0.5% heparin; ITC and FP: Tris pH 8, 200 mM KCl, 5% glycerol; MST: 50 mM Tris pH 8, 200 mM NaCl, 1 mM DTT, BSA, heparin, 0.05% Tween 20
Conditions: tags: N-terminal His-eGFP; label: 5' IRDye 800CW
Number in nM, nothing else.

> print(dat)
                            binder  measuredproperty  unitofmeasurement  reported
1  AUUAUACGUGA (ssRNA) [IR-rpoA-U]                Kd                 nM      94.2

Now consider a different binder.
Please list Kd recorded for the binder AUUAAACGUGA (ssRNA) [IR-rpoA-A]
217
